Ref: patent US20250115620A1

assay_info: in vitro
test_context: human, uninfected MT-4 cells
value_kind: CC50 at 5 days

1. C[C@H]1CC[C@]2(CC(=O)NO2)[C@H]2CN1C(=O)c1c(O)c(=O)c(C(=O)NCc3ccc(F)cc3F)cn12 [Example 156] :: ≥ 50 µM
2. CCN1C[C@@]2(CC[C@H](C)N3C[C@H]2n2cc(C(=O)NCc4c(F)cc(F)cc4F)c(=O)c(O)c2C3=O)OC1=O [Example 63] :: ≥ 50 µM
3. COc1ccc(CN2O[C@@]3(CC[C@H](C)N4C[C@H]3n3cc(C(=O)NCc5c(F)cc(F)cc5F)c(=O)c(O)c3C4=O)CC2=O)cc1 [Example 119] :: ≥ 50 µM

###

System: HIV-1 (IIIB)
assay_info: microbe, parasite or virus in culture
Format: cell-based
test_context: Human immunodeficiency virus 1, IIIB, MT4, 120 h, HIV-1 (IIIB) in MT-4 cells, 5 days incubation, Cell Titer Glo; read-out: MT4 EC50
EC50 for assorted molecules
value_kind: EC50 (nM)

1) C[C@H]1CC[C@]2(CC(C(F)(F)F)=NO2)[C@H]2CN1C(=O)c1c(O)c(=O)c(C(=O)NCc3c(F)cc(F)cc3F)cn12 :: 1.1
2) C[C@H]1CC[C@]2(COC(C)(C)O2)[C@H]2CN1C(=O)c1c(O)c(=O)c(C(=O)NCc3c(F)cc(F)cc3F)cn12 :: 1.5
3) CSC1=NO[C@@]2(CC[C@H](C)N3C[C@H]2n2cc(C(=O)NCc4c(F)cc(F)cc4F)c(=O)c(O)c2C3=O)C1 :: 6.1
4) C[C@H]1CC[C@]2(COC(Cc3ccccc3)O2)[C@H]2CN1C(=O)c1c(O)c(=O)c(C(=O)NCc3c(F)cc(F)cc3F)cn12 (some centres unmarked) :: 7.1
5) CC1=NO[C@@]2(CC[C@H](C)N3C[C@H]2n2cc(C(=O)NCc4ccc(F)cc4F)c(=O)c(O)c2C3=O)N1C [Example 149a] :: 2
6) CC1=NO[C@@]2(CC[C@@H](C)N3C[C@H]2n2cc(C(=O)NCc4c(F)cc(F)cc4F)c(=O)c(O)c2C3=O)C1 :: 3
7) CC1=NO[C@@]2(CC[C@H](C)N3C[C@H]2n2cc(C(=O)NCc4ccc(F)cc4F)c(=O)c(O)c2C3=O)[C@@H]1F (single isomer, unassigned) [Example 27 (peak 2)] :: 0.6
8) C[C@H]1CC[C@]2(CC(=O)N(Cc3ccc(Br)cc3)O2)[C@H]2CN1C(=O)c1c(O)c(=O)c(C(=O)NCc3c(F)cc(F)cc3F)cn12 :: 1.7

###

Measured EC50 accompanies every entry in the list below.
Tested on: pLAI reporter virus
assay_info: microbe, parasite or virus in culture
Format: cell-based, HIV
test_context: Human immunodeficiency virus 1, MT4, 72 h, read-out: RLUC CCM EC50
value_kind: EC50 (nM)

1) C[C@H]1CC[C@]2(CC(=O)N(Cc3cccc4[nH]cnc34)O2)[C@H]2CN1C(=O)c1c(O)c(=O)c(C(=O)NCc3c(F)cc(F)cc3F)cn12 :: 1.9
2) C[C@H]1CC[C@@]2(CN(C)C(=O)O2)[C@H]2CN1C(=O)c1c(O)c(=O)c(C(=O)NCc3c(F)cc(F)cc3F)cn12 :: 25.2
3) C[C@H]1CC[C@]2(CC(=O)N(Cc3ccc(F)cc3F)O2)[C@H]2CN1C(=O)c1c(O)c(=O)c(C(=O)NCc3c(F)cc(F)cc3F)cn12 :: 0.3
4) C[C@H]1CC[C@]2(CC(Cl)=NO2)[C@H]2CN1C(=O)c1c(O)c(=O)c(C(=O)NCc3c(F)cc(F)cc3F)cn12 :: 0.3
5) CC1=NO[C@@]2(CC[C@H](C)N3C[C@H]2n2cc(C(=O)NCc4ccc(F)cc4F)c(=O)c(O)c2C3=O)[C@@H]1F (single isomer, unassigned) [Example 27 (peak 2)] :: 0.3
6) CC1=NO[C@@]2(CC[C@H](C)N3C[C@H]2n2cc(C(=O)NCc4ccc(F)c(Cl)c4F)c(=O)c(O)c2C3=O)[C@H]1O :: 0.3
7) CC1=NO[C@@]2(CC[C@H](C)N3C[C@H]2n2cc(C(=O)NCc4ccc(F)c(Cl)c4F)c(=O)c(O)c2C3=O)[C@H]1C :: 0.2
